- target.or.test.system: human ether-à-go-go-related gene (hERG) potassium channel (human, UniProt Q12809)
- Sequence (Q12809 whole entry, looked up): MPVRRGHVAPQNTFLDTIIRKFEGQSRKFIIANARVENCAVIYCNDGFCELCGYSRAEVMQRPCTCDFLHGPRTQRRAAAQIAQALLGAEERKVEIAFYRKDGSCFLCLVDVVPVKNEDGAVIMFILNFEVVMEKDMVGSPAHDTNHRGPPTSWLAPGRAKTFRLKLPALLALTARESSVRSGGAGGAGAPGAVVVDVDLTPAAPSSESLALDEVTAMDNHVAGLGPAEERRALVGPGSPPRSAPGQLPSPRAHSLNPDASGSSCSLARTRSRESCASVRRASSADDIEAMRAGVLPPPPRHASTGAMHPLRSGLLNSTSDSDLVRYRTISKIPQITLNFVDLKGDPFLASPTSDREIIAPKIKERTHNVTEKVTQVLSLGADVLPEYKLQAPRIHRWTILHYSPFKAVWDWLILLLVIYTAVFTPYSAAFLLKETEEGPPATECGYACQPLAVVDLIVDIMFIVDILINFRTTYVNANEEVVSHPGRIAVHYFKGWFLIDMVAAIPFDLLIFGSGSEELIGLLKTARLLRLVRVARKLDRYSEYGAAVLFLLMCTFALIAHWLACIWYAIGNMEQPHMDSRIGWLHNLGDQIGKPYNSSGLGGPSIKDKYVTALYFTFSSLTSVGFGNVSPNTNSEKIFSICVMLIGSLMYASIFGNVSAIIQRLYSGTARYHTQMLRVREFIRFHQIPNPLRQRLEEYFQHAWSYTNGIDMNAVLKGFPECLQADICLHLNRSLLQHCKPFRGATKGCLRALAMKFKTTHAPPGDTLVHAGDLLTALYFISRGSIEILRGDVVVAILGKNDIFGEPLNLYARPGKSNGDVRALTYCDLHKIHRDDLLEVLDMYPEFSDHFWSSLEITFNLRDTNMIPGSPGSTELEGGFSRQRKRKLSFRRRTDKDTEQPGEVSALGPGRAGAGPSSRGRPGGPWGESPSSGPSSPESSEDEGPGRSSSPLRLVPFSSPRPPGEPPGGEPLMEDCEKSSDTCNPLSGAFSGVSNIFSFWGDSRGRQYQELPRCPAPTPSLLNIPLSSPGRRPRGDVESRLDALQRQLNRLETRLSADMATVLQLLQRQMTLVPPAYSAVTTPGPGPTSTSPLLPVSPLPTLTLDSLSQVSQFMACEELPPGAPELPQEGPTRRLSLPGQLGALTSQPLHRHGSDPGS
- assay.explanation: primary screen, population patch clamp on CHO cells stably expressing hERG; higher = less effect of the substance
Screen size: about 310,000 compounds; about 2,200 (0.71%) showed an effect of 50% or more. The effect is printed as a negative number. The full list was thinned out, with strong results kept by preference.
reported.property: hERG current change (%, negative = inhibition) at 1uM (%)
The reply should contain only the number, in %.

Below are worked cases with known answers.
compound: CN(C(=O)c1cccs1)c1ccc(OCC(=O)N2CCC(C(N)=O)CC2)cc1
readout.value: 25.6
--
compound: Cc1nc(N2CCN(S(=O)(=O)c3ccccc3)CC2)c2cc(-c3ccccc3)sc2n1
readout.value: 2.54
--
compound: O=C(Nc1ccncc1)C1COc2ccccc2O1 (centres unmarked)
readout.value: 1.88
--
compound: COc1ccc(-c2[nH]ncc2CN2CCCC(C(=O)c3ccc(OC)cc3OC)C2)cc1 (centres unmarked)
readout.value: -47.3
--
compound: CCOC(=O)C1CCN(Cc2cn[nH]c2-c2ccccc2)CC1.O=C(O)C(=O)O
readout.value: 14.2

Which hERG current change (%, negative = inhibition) at 1uM value is on record for Fc1ccc(N2CCN(Cc3cn[nH]c3-c3ccccc3)CC2)cc1 ?
-27

What do we get for CCOc1cc2[nH]c(=S)n(Cc3ccc(C)o3)c(=O)c2cc1OCC ?
-3.56

What do we get for COC(=O)c1ccc(CN2CCCC(C(=O)c3ccccc3OC)C2)cc1 (centres unmarked) ?
-6.6

----------
- target.or.test.system: human ether-à-go-go-related gene (hERG) potassium channel (human, UniProt Q12809)
- assay.explanation: primary screen, population patch clamp on CHO cells stably expressing hERG; higher = less effect of the substance
Out of some 310,000 compounds screened, about 2,200 (0.71%) showed an effect of 50% or more. Effects have a minus sign here. The sample holds strong results, similar compounds and a random draw of the others, so the mix is not that of the screen.
// reported hERG current change (%, negative = inhibition) at 1uM per item
The reply should contain only the number, in %.

Below are worked cases with known answers.
compound: Cc1ccc(C(=O)Oc2ccc(Cl)c3cccnc23)cc1[N+](=O)[O-]
target.or.test.system: human ether-à-go-go-related gene (hERG) potassium channel (human, UniProt Q12809)
measure.unit: %
readout.value: 15
//
compound: Cc1ccccc1CNC1CCCCC1.Cl
target.or.test.system: human ether-à-go-go-related gene (hERG) potassium channel (human, UniProt Q12809)
measure.unit: %
readout.value: 2.15
//
compound: O=C(NCC1CCN(Cc2ccccc2Cl)CC1)Nc1cccc(Cl)c1
target.or.test.system: human ether-à-go-go-related gene (hERG) potassium channel (human, UniProt Q12809)
measure.unit: %
readout.value: -62.3
//
compound: Cc1c(Br)c([N+](=O)[O-])nn1C(C)C(=O)NCc1cccnc1 (stereo not shown)
target.or.test.system: human ether-à-go-go-related gene (hERG) potassium channel (human, UniProt Q12809)
measure.unit: %
readout.value: -7.67
//
compound: CSc1sc(C(=O)Nc2ccc(F)cc2F)c2c1C=CCC2
target.or.test.system: human ether-à-go-go-related gene (hERG) potassium channel (human, UniProt Q12809)
measure.unit: %
readout.value: 11.8

Which hERG current change (%, negative = inhibition) at 1uM value is on record for O=C(Oc1ccc(-c2nccc(-c3ccccn3)n2)cc1)c1cccc(C(F)(F)F)c1 ?
5.53

What do we get for O=C(NCC1CCN(Cc2ccccc2Cl)CC1)Nc1ccccc1F ?
-6.32

What do we get for CCOC(=O)c1c(NCc2ccccc2)n[nH]c1C ?
4.96

What do we get for CC(C)=CCc1c(O)cc2c(c1O)C(=O)CC(c1ccccc1)O2 (stereo not shown) ?
12.9

What do we get for O=C(NNC(=O)c1cccs1)c1ccc(Cl)cc1 ?
9.36

----------
// reported hERG current change (%, negative = inhibition) at 1uM per item
- target.or.test.system: human ether-à-go-go-related gene (hERG) potassium channel (human, UniProt Q12809)
- assay.explanation: primary screen, population patch clamp on CHO cells stably expressing hERG; higher = less effect of the substance
Among all 310,000 compounds or so, about 2,200 (0.71%) showed an effect of 50% or more. The effect is printed as a negative number. Many of the other results were omitted from the sample, so strong results are more common in it than they were.
The reply should contain only the number, in %.

Below are worked cases with known answers.
molecule: CCCCC(C(=O)O)C(C)CC(=O)Nc1cccc(C(=O)O)c1 (stereo not shown)
readout.value: 3.02

molecule: O=C(NCc1ccc(F)cc1)C(=O)NCC1OCCN1C(=O)c1cccs1 (stereo not shown)
readout.value: 3.51

molecule: O=C(O)C1=C[C@@H](C2CC2)C[C@@H](OCCCCO)O1
readout.value: 10.7

molecule: COc1cc(NS(=O)(=O)c2ccc(NC(=O)COc3ccccc3Cl)cc2)nc(OC)n1
readout.value: 4.62

molecule: CN(C(=O)c1ccc(OC2CCN(S(=O)(=O)N(C)C)CC2)cc1)C1CCCCC1
readout.value: -1.59

molecule: COc1ccc(/C=C2/C(=O)NC(=O)N(c3ccc(C)c(C)c3)C2=O)cc1CN1C(=O)c2ccccc2C1=O
readout.value: -3.04

molecule: CCN(CC)S(=O)(=O)c1ccc(C)c(NC(=O)CNCc2ccccc2OC)c1.O=C(O)C(=O)O
readout.value: 20.9

molecule: COc1ccc(O)c(C2(O)C(=O)c3ccccc3C2=O)c1
readout.value: 14.2

Which hERG current change (%, negative = inhibition) at 1uM value is on record for Cc1nc(C)n(CC(O)COc2ccc3ccccc3c2)n1 (stereo not shown) ?
-0.527

What do we get for COc1ccccc1N1CCN(C2CCCN(C(=O)CCC(=O)N(C)C)C2)CC1 (stereo not shown) ?
-3.24

What do we get for CCN(CC)S(=O)(=O)c1ccc(C)c(NC(=O)CNCCN(C(C)C)C(C)C)c1.O=C(O)C(=O)O ?
-66.5

What do we get for CN(C)c1cccc(C(=O)Nc2nc3ccccc3[nH]2)c1 ?
14.7

What do we get for O=C(NCc1ccc(Cl)cc1)C(=O)NCC1OCCN1C(=O)c1cccs1 (stereo not shown) ?
3.06

What do we get for Cc1ccc(Cl)cc1N1CCN(C(=O)Cc2c(C(=O)O)[nH]c3ccc(Cl)cc23)CC1 ?
22.4

What do we get for O=c1cc2oc3cc(O)c(O)cc3c(-c3ccccc3[N+](=O)[O-])c-2cc1O ?
8.61

What do we get for CCCN(CC1CC1)C(=O)CSc1nnc(-c2cc(-c3cccs3)nc3ccccc23)o1 ?
6.71

What do we get for Cc1ccc(C)c(N2CCN(C(=O)C3CCCN(S(=O)(=O)c4c(C)[nH]c(=O)[nH]c4=O)C3)CC2)c1 (stereo not shown) ?
9.86

What do we get for Cc1cc(C(=O)CN2C(=O)c3ccccc3C2=O)c(C)n1Cc1cccs1 ?
9.88

What do we get for NCCCC[C@H]1CN=C(N)N1CCc1cccc2ccccc12 ?
9.97

----------
- target.or.test.system: human ether-à-go-go-related gene (hERG) potassium channel (human, UniProt Q12809)
- assay.explanation: primary screen, population patch clamp on CHO cells stably expressing hERG; higher = less effect of the substance
- Description: Briefly, Chinese hamster ovary (CHO) cells stably expressing the hERG channel were dislodged from tissue culture flasks and dispensed into PPC plates. […] Small molecule effects on hERG current density were quantified by […].
In all, about 310,000 compounds went through this assay and about 2,200 (0.71%) showed an effect of 50% or more. The effect is printed as a negative number. For the sample, strong results were picked, then their nearest neighbours and some compounds at random.
// reported hERG current change (%, negative = inhibition) at 1uM per item
The reply should contain only the number, in %.

compound: COc1cccc(C2=NOC(C(=O)Nc3cccnc3Cl)C2)c1OC (stereo not drawn)
readout.value: 14.2
//
compound: Cn1cccc1/C=N/N1CCN(Cc2ccc(Cl)cc2)CC1
readout.value: 3.9
//
compound: CCOC(=O)C1(Cc2ccc(Cl)cc2)CCN(Cc2cnc(N)nc2)CC1
readout.value: -60.6
//
compound: CCOC(=O)C1(Cc2ccc(Cl)cc2)CCN(C(=O)c2cscn2)CC1
readout.value: -12.4
//
compound: O=C(CCCCCn1c(=O)[nH]c2ccccc2c1=O)NCCCN1CCN(c2ccccc2F)CC1
readout.value: -84.6

Which hERG current change (%, negative = inhibition) at 1uM value is on record for CCC(C)NS(=O)(=O)c1ccc(NC(C)=O)cc1 (stereo not drawn) ?
11.2

What do we get for N#Cc1ccc(/C=C/C(=O)c2ccco2)cc1 ?
5.85

What do we get for COc1ccc(OCC(=O)N/N=C(\C)CC(=O)Nc2ccc(OC)cc2[N+](=O)[O-])cc1 ?
-61.8

What do we get for O=C(NCCCN1CCCC1)Nc1ccccc1[N+](=O)[O-] ?
14.8

What do we get for CCOC(=O)C1(Cc2ccc(Cl)cc2)CCN(C(=O)C2=NNC(=O)CC2)CC1 ?
-61.2

What do we get for Cc1ccc(OC(F)F)c(NC(=O)Nc2ccc3c(c2)OCO3)c1 ?
19.9
